Molecular target: T1, Cyno CD98hc ECD Avi-His (cynomolgus macaque, UniProt P08195 105-529 (human entry))
T1 construct: biotinylated on the Avi tag where captured on streptavidin; also called Cyno CD98-AVI-His; Cyno CD98hc-AVI-His
T1 chain: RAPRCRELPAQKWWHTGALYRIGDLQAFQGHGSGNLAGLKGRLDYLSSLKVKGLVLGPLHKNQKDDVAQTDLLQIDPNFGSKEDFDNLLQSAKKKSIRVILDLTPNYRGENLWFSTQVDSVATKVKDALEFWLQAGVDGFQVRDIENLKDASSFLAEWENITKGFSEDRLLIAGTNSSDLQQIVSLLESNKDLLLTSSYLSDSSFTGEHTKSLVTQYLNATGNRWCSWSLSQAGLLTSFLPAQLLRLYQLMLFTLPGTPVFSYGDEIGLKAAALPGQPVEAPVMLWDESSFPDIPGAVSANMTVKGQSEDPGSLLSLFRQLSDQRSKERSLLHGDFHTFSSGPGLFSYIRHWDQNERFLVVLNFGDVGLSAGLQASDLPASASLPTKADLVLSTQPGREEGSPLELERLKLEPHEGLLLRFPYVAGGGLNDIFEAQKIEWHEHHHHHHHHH
Assay: SPR, Biacore T200, anti-kappa capture
# pKd per record follows
The scale used: pKd is minus the common logarithm of the concentration in molar units.

Known results for binders:
Binder	pKd
CD98hc.04.064.1d (humanized, 2+1 format) (bispecific antibody, tested as 2+1 bispecific (scFv on an IgG)) scFv: QVQLVQSGAEVKKPGASVKVSCKASGYTFTSYWMNWVRQAPGQGLEWMGIIDPSDSETSYAQKFQGRVTMTVDKSTSTVYMELSSLRSEDTAVYYCARASYGKGYFDYWGQGTLVTVSSGGSEGKSSGSGSESKSTGGSDIVMTQSPDSLAVSLGERATINCKSSQSLLNNINQKNYLAWYQQKPGQPPKLLIYFASTRESGVPDRFSGSGSGTDFTLTISSLQAEDVAVYYCQQHYSSPFTFGGGTKVEIK	6.44
CD98hc.04.064.4b (humanized, 2+1 format) (bispecific antibody, tested as 2+1 bispecific (scFv on an IgG)) scFv: QVQLVQSGAEVKKPGASVKVSCKASGYTFTSYWMNWVRQAPGQGLEWMGIIDPSDSETNYAQKFQGRVTSTVDKSISTAYMELSRLRSDDTVVYYCARASYGKGYFDYWGQGTLVTVSSGGSEGKSSGSGSESKSTGGSDIVMTQSPDSLAVSLGERATINCKSSQSLLNNINQKNYLAWYQQKPGQPPKLLIYFASTRESGVPDRFSGSGSGTDFTLTISSLQAEDVAVYFCQQHYSSPFTFGGGTKVEIK	6.21
CD98hc.04.064.4c (humanized, 2+1 format) (bispecific antibody, tested as 2+1 bispecific (scFv on an IgG)) scFv: QVQLVQSGAEVKKPGASVKVSCKASGYTFTSYWMHWVRQAPGQGLEWMGIIDPSDSETNYAQKFQGRVTSTVDKSISTAYMELSRLRSDDTVVYYCARASYGKGYFDYWGQGTLVTVSSGGSEGKSSGSGSESKSTGGSDIVMTQSPDSLAVSLGERATINCKSSQSLLNNINQKNYLAWYQQKPGQPPKLLIYFASTRESGVPDRFSGSGSGTDFTLTISSLQAEDVAVYYCQQHYSSPFTFGGGTKVEIK	6.51
CD98hc.04.064.1a (humanized, 2+1 format) (bispecific antibody, tested as 2+1 bispecific (scFv on an IgG)) scFv: QVQLVQSGAEVKKPGASVKVSCKASGYTFTSYWMNWVRQAPGQGLEWMGIIDPSDSETHYAQKFQGRVTMTVDKSTSTVYMELSSLRSEDTAVYYCARASYGKGYFDYWGQGTLVTVSSGGSEGKSSGSGSESKSTGGSDIVMTQSPDSLAVSLGERATINCKSSQSLLNNINQKNYLAWYQQKPGQPPKLLIYFASTRESGVPDRFSGSGSGTDFTLTISSLQAEDVAVYYCQQHYSSPFTFGGGTKVEIK	6.06
CD98hc.04.064.4d (humanized, 2+1 format) (bispecific antibody, tested as 2+1 bispecific (scFv on an IgG)) scFv: QVQLVQSGAEVKKPGASVKVSCKASGYTFTSYWMHWVRQAPGQGLEWMGIIDPSDSETSYAQKFQGRVTMTRDTSTSTVYMELSSLRSEDTAVYYCARASYGKGYFDYWGQGTLVTVSSGGSEGKSSGSGSESKSTGGSDIQMTQSPSSLSASVGDRVTITCRASQSLLNNINQKNYLAWYQQKPGKAPKLLIYFASSLQSGVPSRFSGSGSGTDFTLTISSLQPEDFATYYCQQHYSSPFTFGGGTKVEIK	6.80

--- query ---
Would you kindly share the measured pKd for CD98hc.04.064.1e (humanized, 2+1 format) (bispecific antibody, tested as 2+1 bispecific (scFv on an IgG)) scFv: QVQLVQSGAEVKKPGASVKVSCKASGYTFTSYWMHWVRQAPGQGLEWMGIIDPSDSETHYAQKFQGRVTMTVDKSTSTVYMELSSLRSEDTAVYYCARASYGKGYFDYWGQGTLVTVSSGGSEGKSSGSGSESKSTGGSDIVMTQSPDSLAVSLGERATINCKSSQSLLNNINQKNYLAWYQQKPGQPPKLLIYFASTRESGVPDRFSGSGSGTDFTLTISSLQAEDVAVYYCQQHYSSPFTFGGGTKVEIK ?
6.92
